- Test system: human colon cancer (HCT-116) cell line
- protocolText: Cytotoxicity assay (MTT), HCT-116
- Format: cell-based
- recordedConditions: 24 h treatment
metric: IC50

Known IC50 results, listed for orientation:
>>> observed("COc1cc(CCNC(=O)C2=Cc3cc(OC)c(O)c(OC)c3[C@@H](c3cc(OC)c(O)c(OC)c3)[C@@H]2C(=O)NCCc2ccc(O)cc2)ccc1O")
"> 20 µM"
>>> observed("COc1cc(C=CC(=O)OCC2C(Cc3cc(OC)c(O)c(OC)c3)COC2c2cc(OC)c(O)c(OC)c2)cc(OC)c1O (single isomer, unassigned; (+))")
"> 20 µM"
>>> observed("COc1cc(C=CC(=O)OCC2C(Cc3ccc(O)c(OC)c3)COC2c2cc(OC)c(O)c(OC)c2)ccc1O (single isomer, unassigned; (+))")
"> 20 µM"
>>> observed("COc1cc(CC2COC(c3cc(OC)c(O)c(OC)c3)C2CO)cc(OC)c1O (single isomer, unassigned; (+)) [Compound 15, (+)-5,5′-dimethoxylariciresinol]")
"> 20 µM"
>>> observed("COc1cc(/C=C/C(=O)OC[C@@H](Cc2ccc(O)c(OC)c2)[C@@H](COC(=O)/C=C/c2ccc(O)c(OC)c2)Cc2ccc(O)c(OC)c2)ccc1O")
"> 20 µM"
>>> observed("COc1cc(/C=C/C(=O)OC[C@@H](Cc2cc(OC)c(O)c(OC)c2)[C@@H](CO)Cc2cc(OC)c(O)c(OC)c2)ccc1O")
"> 20 µM"
>>> observed("COc1cc(C=CC(=O)OCC2C(C(=O)c3cc(OC)c(O)c(OC)c3)COC2c2cc(OC)c(O)c(OC)c2)ccc1O (single isomer, unassigned; (+))")
"> 20 µM"
>>> observed("COc1cc(C=CC(=O)OCC2C(c3cc(OC)c(O)c(OC)c3)OCC2C(OC)c2cc(OC)c(O)c(OC)c2)ccc1O (stereo not shown)")
"> 20 µM"
>>> observed("COc1cc([C@@H]2c3c(cc(OC)c(O)c3OC)C=C(C(=O)NCCc3ccc(O)cc3)[C@H]2CO)cc(OC)c1O")
"> 20 µM"
>>> observed("COc1cc(/C=C/C(=O)OC[C@@H](Cc2ccc(O)c(OC)c2)[C@@H](CO)Cc2ccc(O)c(OC)c2)ccc1O")
"> 20 µM"

Which IC50 reading was recorded for the compound `COc1cc(C[C@H]2COC(=O)[C@@H]2Cc2ccc(O)c(OC)c2)ccc1O` ?
14 µM

Further, for `COc1cc([C@@H]2c3c(cc(OC)c(O)c3OC)C=C(C(=O)NCCc3ccc(O)cc3)[C@H]2C(=O)NCCc2ccc(O)cc2)cc(OC)c1O` ?
> 20 µM

Further, for `COc1cc(C[C@H]2C(=O)OC[C@@H]2Cc2ccc(OC)c(OC)c2)ccc1O` ?
3.25 µM

Further, for COc1cc(CC2COC(c3cc(OC)c(O)c(OC)c3)C2CO)ccc1O (single isomer, unassigned; (+)) [Compound 16, (+)-5′-methoxylariciresinol] ?
> 20 µM

Origin of values: paper PMC6359749
